From: PubChem BioAssay (NCATS)

assay comment: Secretion counterscreen for inhibitors of the SERCaMP assay screened against the NCATS CANVASS Library (AID 1347390);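 note: light from luciferase secreted into medium read as a measure of general secretion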
setup conditions: SH-SY5Y constitutive GLuc secretion, luminescence, 20 h; series mostly up to 76.6 µM
Inconclusive results are not listed. Active and inactive are the calls of the source. Calls come from the whole dose curve; as a rule, active = well fitted inhibition curve with a large enough effect; inconclusive = small, poorly fitted or top-dose-only effect; inactive = no such curve, though single readings can be large or run the other way.
The reply should name one outcome from class 1 (active), class 0 (inactive)

Past entries and their recorded results:
compound=C/C=C/c1cc2c(c(=O)o1)C(=O)[C@@H](O)[C@H](C)O2 category="class 1"
compound=C=C[C@@]1(C)CC[C@@H]([C@H](C)C(=O)/C=C/C(C)(C)O)O1 category="class 0"
compound=CC(C)[C@@H]1CC(=O)c2coc3c2[C@H]1C[C@@H](C)C3=O category="class 0"
compound="COc1cc2c(cc1OC)[C@@H](c1ccc3c(c1)OCO3)C(C)[C@@H](C)C2=O (some centres not stated)" category="class 0"
compound="COC1C(C)OC(OCC23C[C@@H]4[C@H](C)CC[C@H]4C4(C=O)CC2C=C(C(C)C)C34C(=O)O)[C@@H](O)[C@H]1O (some centres not stated)" category="class 0"
compound="C=C1C[C@]23C=CC(=O)[C@@](C)(CCCC(C)C(=O)N[C@@H](CO)C(=O)O)[C@@H]2C[C@@H]1CC3 (some centres not stated)" category="class 0"
compound=COC(=O)[C@]1([C@H]2CCC(=O)O2)CC(=O)c2c(O)cc(C)cc2O1 category="class 0"
compound=CC[C@@H](c1cc(OC)c(OC)cc1OC)[C@H](C)[C@@H](/C(C)=C/c1cc(OC)c(OC)cc1OC)c1cc(OC)c(OC)cc1OC category="class 0"

# next compound below
# input Test call for this compound, please: O=C1CC(c2ccc(O)cc2)Oc2cc(O)ccc21 (configuration not stated)
# output class 0

* * *

assay comment: qHTS Assay for Lipid Storage Modulators (AID 1519)
setup conditions: Drosophila S3 cells, BODIPY lipid droplet/cell ratio, laser cytometry; measured here: lipid channel max response; cells loaded with oleic acid
Results filed as inconclusive are left out.
# label = 1.0 if max response >= 20% else 0.0

# input Confirm if max response reported for the molecule `COCCn1c(=O)c(-c2cccc(C#N)c2)nc2cnc(OC)nc21` is 20% or above.
# output 1.0

# input Please check the record `CN1CCN(c2cc(-c3ccc(N(C)C)cc3)ncn2)CC1` and state if its max response is at or above 20%.
# output 0.0

# input Quick check, max response >= 20%? `Cc1nc2cncnc2n(C2CC2)c1=O`
# output 1.0

# input Does the reported max response for `COCCNc1nc(-c2ccccc2CN(C)C)nc2ccccc12` fall at or above the 20% mark?
# output 0.0

# input Identify whether the reported max response of the following molecule is 20% or greater: `Cc1nc2cnc(N3CCOCC3)nc2n(Cc2ccc(F)cc2)c1=O`
# output 0.0

* * *

assay comment: qHTS for differential inhibitors of proliferation of Plasmodium falciparum line W2 (AID 1883);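 note: parasites grown with compound for 72 h before lysis and staining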
setup conditions: Plasmodium falciparum W2 proliferation inhibition; series mostly up to 28.7 µM
Records with an inconclusive call do not appear. The source made the active and inactive calls. Calls follow the shape of the dose curve; as a rule, active = well fitted curve in the direction sought with a large enough effect; inconclusive = small, poorly fitted or top-dose-only effect, or another doubt; inactive = no such curve, though single readings can be large or run the other way.
Respond only with the outcome that fits, drawn from true (1) = active, false (0) = inactive

Sample answers from the record:
molecule="C[C@]12CCC(=O)C=C1CC[C@@H]1C2[C@@H](O)C[C@@]2(C)[C@H]1CC[C@]2(O)C(=O)CO (some centres not stated)" category="false (0)"
molecule=CSc1nc(N)c2ncn([C@@H]3O[C@H](COP(=O)(O)OP(=O)(O)OP(=O)(O)O)[C@H](O)[C@H]3O)c2n1 category="true (1)"
molecule=NCCNC(=O)c1ccc(Cl)cc1 category="false (0)"
molecule=CNc1ncnc2c1ncn2[C@@H]1O[C@H](CO)[C@H](O)[C@H]1O category="false (0)"
molecule=NCCCCNS(=O)(=O)c1cccc2c(Cl)cccc12 category="true (1)"
molecule="NCC1OC(O[C@@H]2[C@H](O)[C@@H](OC3C(O)C(N)CC(N)C3OC3OC(CO)C(O)C(O)C3N)O[C@@H]2CO)C(N)C(O)C1O (some centres not stated)" category="false (0)"
molecule="NC(=S)c1ccc[n+]([C@@H]2O[C@@H](COP(=O)([O-])OP(=O)(O)OC[C@H]3O[C@@H](n4cnc5c(N)ncnc54)[C@H](OP(=O)(O)O)[C@H]3O)C(O)C2O)c1 (some centres not stated)" category="false (0)"
molecule=NC(=NCCC[C@H](N)C(=O)O)NO category="false (0)"

# input Hello, I am checking results. What call was entered for C[C@H]1CC2[C@@H]3CCC4=CC(=O)C=C[C@]4(C)[C@@]3(F)[C@@H](O)C[C@]2(C)[C@@]1(O)C(=O)CO (some centres not stated) ?
# output true (1)
